protocolDetails: Metabolic stability of the compound in human liver microsomes assessed as parent compound remaining at 1 uM measured after 60 mins in absence of NADPH by LC-MS/MS analysis
Type: ADME, Microsome
measurementConditions: read-out: Stabilty
assayReadout: remaining at 1 h, 1 µM (%)
Only the number, expressed in %, is required.

Please give the measured remaining at 1 h, 1 µM for this molecule: N=C(NO)c1ccc2nc(-c3cccc(-c4cn5ccccc5n4)c3)[nH]c2c1 99

====

testedTarget: Histone deacetylase 9 (Homo sapiens)
assayReadout: IC50 (nM)
Only the number, expressed in nM, is required.

Please give the measured IC50 for this compound: CC(C)(C)Nc1c(-c2ccc(-c3noc(C(F)(F)F)n3)cc2)nc2ccccn12 2310

====

testedTarget: UniProt Q13547
Sequence (Q13547 whole entry, the tested form may be a part): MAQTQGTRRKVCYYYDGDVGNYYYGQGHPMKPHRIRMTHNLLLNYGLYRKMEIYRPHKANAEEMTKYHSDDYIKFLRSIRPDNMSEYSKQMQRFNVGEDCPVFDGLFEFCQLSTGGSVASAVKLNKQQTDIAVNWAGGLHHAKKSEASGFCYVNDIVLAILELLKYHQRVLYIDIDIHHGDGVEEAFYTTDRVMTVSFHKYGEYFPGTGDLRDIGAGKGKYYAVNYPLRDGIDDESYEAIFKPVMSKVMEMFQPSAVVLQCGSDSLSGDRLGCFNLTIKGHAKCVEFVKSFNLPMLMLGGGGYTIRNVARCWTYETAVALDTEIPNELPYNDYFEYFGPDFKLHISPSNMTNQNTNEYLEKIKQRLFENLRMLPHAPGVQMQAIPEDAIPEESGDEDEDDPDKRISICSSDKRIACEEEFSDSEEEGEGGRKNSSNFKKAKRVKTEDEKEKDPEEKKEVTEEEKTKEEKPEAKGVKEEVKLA
protocolDetails: Inhibition of C-terminal FLAG/His-tagged human recombinant HDAC1 (1 to 482 residues) expressed in baculovirus-infected Sf9 cells assessed as reduction in 7-amino-4-methylcoumarin release using fluorogenic HDAC substrate 3 measured every 5 mins by fluorescence based analysis
pIC50: −log10 of the molar value.
Items are presented alongside their recorded pIC50.

Past entries and their recorded results:
CC(C)(C)Nc1c(-c2ccc(-c3noc(C(F)(F)F)n3)cc2)nc2ccccn12 < 5.00
CC(C)(C)Nc1c(-c2cccc(C(=O)Nc3ccc(F)cc3N)c2)nc2ccccn12 < 5.00
CC(C)(C)Nc1c(-c2cccc(-c3nc4cc(-c5noc(C(F)(F)F)n5)ccc4[nH]3)c2)nc2ccccn12 < 5.00

Please give the measured pIC50 for this compound: CC(C)(C)Nc1c(-c2cccc(-c3nc4cc(-c5noc(C(F)(F)F)n5)ccc4[nH]3)c2)nc2cnccn12 < 5.00

Please give the measured pIC50 for this compound: N=C(NO)c1ccc2nc(-c3cccc(-c4cn5ccccc5n4)c3)[nH]c2c1 6.26

====

testedTarget: Cytochrome P450 2D6 (Homo sapiens, UniProt P10635)
Sequence (P10635 whole entry): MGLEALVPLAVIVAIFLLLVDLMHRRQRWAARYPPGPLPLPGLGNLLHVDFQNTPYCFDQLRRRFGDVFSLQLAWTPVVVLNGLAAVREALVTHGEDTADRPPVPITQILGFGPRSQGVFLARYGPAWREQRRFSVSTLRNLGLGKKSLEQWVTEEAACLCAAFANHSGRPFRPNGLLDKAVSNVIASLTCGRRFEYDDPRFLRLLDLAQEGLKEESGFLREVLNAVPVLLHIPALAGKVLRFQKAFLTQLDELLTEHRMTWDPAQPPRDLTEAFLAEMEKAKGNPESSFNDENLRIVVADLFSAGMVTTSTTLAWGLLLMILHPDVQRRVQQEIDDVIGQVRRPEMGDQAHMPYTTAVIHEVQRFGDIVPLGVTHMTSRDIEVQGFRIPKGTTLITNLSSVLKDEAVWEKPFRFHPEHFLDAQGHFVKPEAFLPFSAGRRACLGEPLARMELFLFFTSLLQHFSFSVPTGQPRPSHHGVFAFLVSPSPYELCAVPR
pIC50: −log10 of the molar value.
assayReadout: pIC50

Value wanted: pIC50 (Cytochrome P450 2D6 (Homo sapiens, UniProt P10635)) of entry N=C(NO)c1ccc2nc(-c3cccc(-c4cn5ccccc5n4)c3)[nH]c2c1 < 5.00

====

testedTarget: Histone deacetylase 2 (Homo sapiens, UniProt Q92769)
Sequence (Q92769 whole entry): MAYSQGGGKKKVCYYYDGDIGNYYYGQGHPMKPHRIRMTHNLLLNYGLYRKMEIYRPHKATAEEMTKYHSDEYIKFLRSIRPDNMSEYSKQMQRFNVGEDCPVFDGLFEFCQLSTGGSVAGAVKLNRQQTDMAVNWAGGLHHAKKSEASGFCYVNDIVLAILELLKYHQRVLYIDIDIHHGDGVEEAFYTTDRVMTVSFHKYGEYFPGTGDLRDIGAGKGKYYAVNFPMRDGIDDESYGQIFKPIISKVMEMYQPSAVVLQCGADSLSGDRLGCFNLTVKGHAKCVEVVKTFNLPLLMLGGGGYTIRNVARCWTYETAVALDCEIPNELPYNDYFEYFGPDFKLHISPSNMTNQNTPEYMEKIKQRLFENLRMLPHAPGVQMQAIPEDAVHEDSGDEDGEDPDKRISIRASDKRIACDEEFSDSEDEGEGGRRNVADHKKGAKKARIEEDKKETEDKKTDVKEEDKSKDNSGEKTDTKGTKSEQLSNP
assayReadout: IC50

Please give the measured IC50 for this compound: N=C(NO)c1ccc2nc(-c3cccc(-c4cn5ccccc5n4)c3)[nH]c2c1 0.4 µM

====

testedTarget: Histone deacetylase 3/Nuclear receptor corepressor 2 (HDAC3/NCoR2) (Homo sapiens, UniProt O15379)
Sequence (O15379 whole entry, the tested form may be a part): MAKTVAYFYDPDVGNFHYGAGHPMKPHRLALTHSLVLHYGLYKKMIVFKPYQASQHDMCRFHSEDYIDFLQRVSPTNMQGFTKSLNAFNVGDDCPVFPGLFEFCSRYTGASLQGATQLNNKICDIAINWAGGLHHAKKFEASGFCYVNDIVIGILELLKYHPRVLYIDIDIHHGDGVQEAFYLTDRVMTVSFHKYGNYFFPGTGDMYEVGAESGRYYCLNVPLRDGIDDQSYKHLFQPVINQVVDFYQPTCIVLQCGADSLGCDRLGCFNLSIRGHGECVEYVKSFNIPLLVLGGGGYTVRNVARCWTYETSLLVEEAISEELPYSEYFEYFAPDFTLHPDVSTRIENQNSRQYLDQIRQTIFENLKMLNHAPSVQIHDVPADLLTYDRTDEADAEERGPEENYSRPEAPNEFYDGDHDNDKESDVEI
Sequence (Q9Y618 whole entry, further chain, the tested form may be a part): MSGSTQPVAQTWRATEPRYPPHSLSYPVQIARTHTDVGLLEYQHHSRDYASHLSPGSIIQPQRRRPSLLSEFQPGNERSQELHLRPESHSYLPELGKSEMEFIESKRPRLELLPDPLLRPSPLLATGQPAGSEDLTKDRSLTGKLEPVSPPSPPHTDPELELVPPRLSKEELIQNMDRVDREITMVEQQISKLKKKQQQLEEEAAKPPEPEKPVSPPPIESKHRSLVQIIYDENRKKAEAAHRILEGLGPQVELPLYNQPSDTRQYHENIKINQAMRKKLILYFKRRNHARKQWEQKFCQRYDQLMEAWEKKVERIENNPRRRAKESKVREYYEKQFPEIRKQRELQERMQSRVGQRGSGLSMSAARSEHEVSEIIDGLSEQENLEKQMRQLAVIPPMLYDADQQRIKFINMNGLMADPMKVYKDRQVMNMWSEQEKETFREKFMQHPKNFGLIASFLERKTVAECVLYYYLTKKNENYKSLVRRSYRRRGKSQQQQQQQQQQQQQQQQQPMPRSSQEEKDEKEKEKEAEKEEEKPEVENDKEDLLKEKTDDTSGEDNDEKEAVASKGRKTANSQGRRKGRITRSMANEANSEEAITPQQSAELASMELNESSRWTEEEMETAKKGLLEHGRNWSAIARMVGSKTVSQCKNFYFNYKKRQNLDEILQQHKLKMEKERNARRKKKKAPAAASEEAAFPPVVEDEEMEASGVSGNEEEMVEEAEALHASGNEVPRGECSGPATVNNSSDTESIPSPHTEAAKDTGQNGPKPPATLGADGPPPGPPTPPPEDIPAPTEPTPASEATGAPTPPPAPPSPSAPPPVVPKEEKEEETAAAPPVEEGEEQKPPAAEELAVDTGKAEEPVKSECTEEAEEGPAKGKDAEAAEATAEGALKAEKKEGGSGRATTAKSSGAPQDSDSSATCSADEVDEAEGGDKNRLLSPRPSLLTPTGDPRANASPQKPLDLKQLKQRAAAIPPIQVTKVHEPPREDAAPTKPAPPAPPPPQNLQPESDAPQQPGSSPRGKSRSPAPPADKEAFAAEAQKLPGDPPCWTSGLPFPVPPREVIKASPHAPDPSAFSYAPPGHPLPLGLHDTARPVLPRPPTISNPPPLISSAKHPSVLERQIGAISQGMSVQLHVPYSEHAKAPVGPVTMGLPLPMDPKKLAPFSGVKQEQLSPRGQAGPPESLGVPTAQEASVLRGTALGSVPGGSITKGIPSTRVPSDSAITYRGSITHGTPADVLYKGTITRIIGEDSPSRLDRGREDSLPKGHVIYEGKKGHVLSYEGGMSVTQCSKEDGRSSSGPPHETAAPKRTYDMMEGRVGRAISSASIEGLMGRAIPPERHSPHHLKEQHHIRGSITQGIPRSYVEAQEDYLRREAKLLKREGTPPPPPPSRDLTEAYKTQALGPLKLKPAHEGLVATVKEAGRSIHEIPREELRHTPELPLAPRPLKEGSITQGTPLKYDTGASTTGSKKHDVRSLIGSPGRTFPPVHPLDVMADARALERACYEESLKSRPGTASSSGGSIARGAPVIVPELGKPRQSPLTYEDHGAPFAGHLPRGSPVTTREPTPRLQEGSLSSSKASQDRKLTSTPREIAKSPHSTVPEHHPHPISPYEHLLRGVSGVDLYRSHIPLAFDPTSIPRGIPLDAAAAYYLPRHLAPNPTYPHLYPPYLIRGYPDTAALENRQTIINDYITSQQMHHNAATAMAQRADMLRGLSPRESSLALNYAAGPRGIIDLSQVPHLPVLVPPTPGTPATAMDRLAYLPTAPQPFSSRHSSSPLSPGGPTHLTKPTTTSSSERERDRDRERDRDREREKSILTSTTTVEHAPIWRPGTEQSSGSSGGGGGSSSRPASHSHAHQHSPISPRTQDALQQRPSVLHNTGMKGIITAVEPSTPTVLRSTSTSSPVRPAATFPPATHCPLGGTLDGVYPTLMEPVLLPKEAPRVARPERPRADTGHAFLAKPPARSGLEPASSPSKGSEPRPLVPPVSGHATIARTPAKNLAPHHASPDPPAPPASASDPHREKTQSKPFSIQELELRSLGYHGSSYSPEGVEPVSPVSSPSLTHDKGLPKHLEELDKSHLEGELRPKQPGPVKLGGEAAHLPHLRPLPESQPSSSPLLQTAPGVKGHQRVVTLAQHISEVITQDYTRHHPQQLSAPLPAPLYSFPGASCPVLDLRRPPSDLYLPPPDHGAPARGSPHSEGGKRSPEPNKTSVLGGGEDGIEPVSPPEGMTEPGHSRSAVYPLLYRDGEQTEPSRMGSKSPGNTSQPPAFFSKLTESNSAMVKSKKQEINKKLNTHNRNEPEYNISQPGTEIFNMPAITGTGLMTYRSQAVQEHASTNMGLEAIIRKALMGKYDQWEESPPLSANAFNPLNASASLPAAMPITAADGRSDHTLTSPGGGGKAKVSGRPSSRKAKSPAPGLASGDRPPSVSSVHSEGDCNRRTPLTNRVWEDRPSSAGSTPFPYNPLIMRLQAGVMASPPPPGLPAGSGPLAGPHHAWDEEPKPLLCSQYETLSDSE
protocolDetails: Inhibition of C-terminal His-tagged human recombinant full length HDAC3 (1 to 428 residues)/N-terminal GST-tagged human recombinant NCOR2 (395 to 489 residues) expressed in baculovirus-infected Sf9 cells assessed as reduction in 7-amino-4-methylcoumarin release using fluorogenic HDAC substrate 3 measured every 5 mins by fluorescence based analysis
assayReadout: IC50

Please give the measured IC50 for this compound: O=C(NC1CCN(Cc2ccccc2)C1)c1ccc(-c2noc(C(F)(F)F)n2)cc1 (stereo unspecified) 1.09 µM

====

Test system: MCF7
protocolDetails: Induction of cell cycle arrest in human MCF7 cells assessed as accumulation at subG1 phase at 1 uM incubated for 24 to 72 hrs by PI staining based flow cytometric analysis
Format: functional
measurementConditions: time 24-72 hrs
Activity calls are given as the source filed them. The rule behind the calls is not given here.
I would appreciate it if you answered using one of these outcomes: active, inactive

Example cases with answers are listed next.
CC(C)(C)Nc1c(-c2cccc(-c3nc4cc(-c5noc(C(F)(F)F)n5)ccc4[nH]3)c2)nc2ccccn12 inactive
CC(C)(C)Nc1c(-c2cccc(C(=O)Nc3ccc(F)cc3N)c2)nc2ccccn12 active
CC(C)(C)Nc1c(-c2ccc(-c3noc(C(F)(F)F)n3)cc2)nc2ccccn12 active
CC(C)(C)Nc1c(-c2cccc(-c3nc4cc(-c5noc(C(F)(F)F)n5)ccc4[nH]3)c2)nc2cnccn12 active

Now look at this one.
Answer briefly: the call reported for N=C(NO)c1ccc2nc(-c3cccc(-c4cn5ccccc5n4)c3)[nH]c2c1 in this assay. active

====

Items are presented alongside their recorded IC50.
Test system: A549
protocolDetails: Antiproliferative activity against human A549 cells assessed as reduction in cell viability incubated for 48 hrs by SRB assay
Format: functional, cell-based
measurementConditions: A549, 48 h

Past entries and their recorded results:
CC(C)(C)Nc1c(-c2ccc(-c3noc(C(F)(F)F)n3)cc2)nc2ccccn12 > 10 µM
CC(C)(C)Nc1c(-c2cccc(-c3nc4cc(-c5noc(C(F)(F)F)n5)ccc4[nH]3)c2)nc2ccccn12 > 10 µM

Value wanted: IC50 (A549) of entry CC(C)(C)Nc1c(-c2cccc(C(=O)Nc3ccc(F)cc3N)c2)nc2ccccn12 > 10 µM

====

Items are presented alongside their recorded pIC50.
testedTarget: Histone deacetylase 3/Nuclear receptor corepressor 2 (HDAC3/NCoR2) (Homo sapiens, UniProt O15379)
protocolDetails: Inhibition of C-terminal His-tagged human recombinant full length HDAC3 (1 to 428 residues)/N-terminal GST-tagged human recombinant NCOR2 (395 to 489 residues) expressed in baculovirus-infected Sf9 cells assessed as reduction in 7-amino-4-methylcoumarin release using fluorogenic HDAC substrate 3 measured every 5 mins by fluorescence based analysis
pIC50: −log10 of the molar value.

Past entries and their recorded results:
CC(C)(C)Nc1c(-c2cccc(-c3nc4cc(-c5noc(C(F)(F)F)n5)ccc4[nH]3)c2)nc2ccccn12 < 5.00
N=C(NO)c1ccc2nc(-c3cccc(-c4cn5ccccc5n4)c3)[nH]c2c1 < 5.00
CC(C)(C)Nc1c(-c2cccc(-c3nc4cc(-c5noc(C(F)(F)F)n5)ccc4[nH]3)c2)nc2cnccn12 < 5.00

Please give the measured pIC50 for this compound: CC(C)(C)Nc1c(-c2cccc(C(=O)Nc3ccc(F)cc3N)c2)nc2ccccn12 5.67

Please give the measured pIC50 for this compound: CC(C)(C)Nc1c(-c2ccc(-c3noc(C(F)(F)F)n3)cc2)nc2ccccn12 < 5.00
